Here, each record is paired with measured growth data.
system: IGROV1 ovarian; assay: NCI-60 one-dose screen, 48 h (100 = growth as untreated, 0 = no growth, -100 = all killed); conditions: 10 µM unless noted
This is part of a sample that, as a whole, favours compounds with a hit. Of some 83,000 tested, about 20% had one in any assay.
value kind: growth (%)

[[record]]
compound = "C=C1C(=O)O[C@H]2[C@H]1CC/C(COC(=O)NCCc1c[nH]c3ccc(OC)cc13)=C\\CC[C@@]1(C)O[C@@H]21"
value_kind = "growth"
experimental_result = -5.2

[[record]]
compound = "CCCCCOc1ccc(/C=N/Nc2cc(C)nc3ccc(Cl)cc23)cc1"
value_kind = "growth"
experimental_result = -76.8

[[record]]
compound = "CCCCOc1ccc(/C(C)=N/Nc2cc(C)nc3ccc(Br)cc23)cc1"
value_kind = "growth"
experimental_result = 85.7

[[record]]
compound = "CC(=O)N1N=C(c2ccc(-n3ccc(C(F)(F)F)n3)c(F)c2)CC1c1ccc[nH]1 (stereo not given)"
value_kind = "growth"
experimental_result = 112

[[record]]
compound = "NC(=NCCCOc1ccc(F)cc1)Nc1ccc(I)cc1"
value_kind = "growth"
experimental_result = 66.3

[[record]]
compound = "N#C/C(=C\\c1ccc([N+](=O)[O-])s1)c1nc2cc(Br)ccc2s1"
value_kind = "growth"
experimental_result = -32.7

[[record]]
compound = "O=C(/C(=C\\c1ccc([N+](=O)[O-])cc1)S(=O)Cc1ccc(Cl)cc1)c1ccc(Cl)cc1 (stereo not given)"
value_kind = "growth"
experimental_result = 62.7

[[record]]
compound = "C=C1C(=O)O[C@H]2[C@H]1CC/C(COC(=O)NCc1c[nH]c3ccc(Br)cc13)=C\\CC[C@@]1(C)O[C@@H]21"
value_kind = "growth"
experimental_result = -46.8

[[record]]
compound = "CC(C)N1C(=O)S/C(=C2/SC(=O)N(C(C)C)C2=O)C1=O"
value_kind = "growth"
experimental_result = 98.9

[[record]]
compound = "COc1cc2nc(-c3ccc(C(F)(F)F)cc3)cc(OCCN3CCCCC3)c2cc1OC"
value_kind = "growth"
experimental_result = 46.5

[[record]]
compound = "CC(=O)Nc1cccc(-c2ccc3c(c2)NC(=O)/C3=C\\c2ccc[nH]2)c1"
value_kind = "growth"
experimental_result = 43.4

[[record]]
compound = "c1ccc2c(-c3c[nH]c4ccccc34)c3c(cc2c1)[nH]c1ccccc13"
value_kind = "growth"
experimental_result = 69

[[record]]
compound = "CCCC/C=N/NC(=S)NCc1ccccc1"
value_kind = "growth"
experimental_result = 110

[[record]]
compound = "CCN(Cc1ccccc1)c1ccc(C=O)cc1"
value_kind = "growth"
experimental_result = 96.1

[[record]]
compound = "O=S(=O)(Nc1ccc(-n2cnc3cc(-c4ccc(O)cc4)ccc32)cc1)c1ccccc1"
value_kind = "growth"
experimental_result = 91.4

[[record]]
compound = "COc1ccc(C/C(C)=C(/c2ccc(OCCCN(C)C)cc2)c2ccc(OC(C)=O)cc2)cc1"
value_kind = "growth"
experimental_result = 58.4

[[record]]
compound = "O=C1c2ccc3c4c(ccc(c24)C(=O)N1CCCNCc1ccccc1F)C(=O)N(CCCNCc1ccccc1F)C3=O"
value_kind = "growth"
experimental_result = -57.7

[[record]]
compound = "NC(=O)Nc1ccc(-n2cnc3cc(-c4ccc(O)cc4)ccc32)cc1"
value_kind = "growth"
experimental_result = 108

[[record]]
compound = "CCOC(=O)C1=C(CCl)NC(=O)NC1c1ccc2c(c1)OCO2 (stereo not given)"
value_kind = "growth"
experimental_result = 37.2

[[record]]
compound = "COc1ccc2c(c1)oc1c(C)c3c(c(C)c12)C(=O)N(N)C3=O"
value_kind = "growth"
experimental_result = 26.8

